System: RXF 393 renal
test-details: NCI tumour cell line growth inhibition, 48 h
metric: TGI (µM)
Numbers only here, please. The scale is µM.

Here's what some known entries look like.
1) O=c1c(Br)ccc(Br)cc1Br = 3.06
2) CCCCCCOc1ccc(/C=N/Nc2cc(C)nc3ccc(Br)cc23)cc1 = 2.95
3) NC1=C(O)/C(=N/NS(=O)(=O)c2ccccc2)C(c2cccc(Cl)c2)O1 (stereo unspecified) = 29.6

Next compound, TGI to be filled in.
QUERY: Quick check: TGI of COc1cc(/C=C2\CCCC3=C2N=C2SC=NN2C3c2cc(OC)c(OC)c(OC)c2)cc(OC)c1OC (stereo unspecified) ?
RESULT: 4.74
